biological target: Multidrug efflux pump subunit AcrB (Escherichia coli (strain K12)) (UniProt P31224); assay: Inhibition of AcrB in multidrug-resistant Escherichia coli BW25113 assessed as potentiation of tetraphenylphosphonium-induced antibacterial activity by measuring tetraphenylphosphonium MIC at 64 ug/ml by checkerboard titration method (reference value: 1024 ug/ml); conditions: dose 64.0 µg/ml
Here the recorded MIC is given for each entry.

Example entries begin here.
{"Molecule": "CC1(C)CC(=O)c2ccc(OCC(=O)Nc3ccc(C#N)c(C(F)(F)F)c3)cc2O1", "Experimental System": "Multidrug efflux pump subunit AcrB (Escherichia coli (strain K12)) (UniProt P31224)", "MIC": "256 µg/mL"}
{"Molecule": "COc1cccc(COc2cccc3c4c(c(C(=O)N5CCOCC5)cc23)CCC(C)(C)O4)c1", "Experimental System": "Multidrug efflux pump subunit AcrB (Escherichia coli (strain K12)) (UniProt P31224)", "MIC": "256 µg/mL"}
{"Molecule": "CNC(=O)c1ccc(COc2cccc3c4c(c(Cn5cnnn5)cc23)CCC(C)(C)O4)cc1", "Experimental System": "Multidrug efflux pump subunit AcrB (Escherichia coli (strain K12)) (UniProt P31224)", "MIC": "1020 µg/mL"}
{"Molecule": "CC1(C)CC(=O)c2ccc(OCCNC3CCCC3)cc2O1", "Experimental System": "Multidrug efflux pump subunit AcrB (Escherichia coli (strain K12)) (UniProt P31224)", "MIC": "512 µg/mL"}
{"Molecule": "Cc1ccccc1COc1cccc2c3c(c(-c4nnco4)cc12)CCC(C)(C)O3", "Experimental System": "Multidrug efflux pump subunit AcrB (Escherichia coli (strain K12)) (UniProt P31224)", "MIC": "512 µg/mL"}
{"Molecule": "CC1(C)CCc2c(C(=O)O)cc3c(OCc4ccccc4)cccc3c2O1", "Experimental System": "Multidrug efflux pump subunit AcrB (Escherichia coli (strain K12)) (UniProt P31224)", "MIC": "256 µg/mL"}

Problem: Give the reported MIC for this molecule. "CC(C)NCCOc1ccc2c(c1)OC(C)(C)CC2=O"
Result: 1020 µg/mL

Problem: Specify reported MIC for the molecule shown: "CC1(C)CCc2c(-c3nnco3)cc3c(OCc4ccc([N+](=O)[O-])cc4)cccc3c2O1"
Result: 1020 µg/mL

Problem: Specify reported MIC for the molecule shown: "CC1(C)CCc2c(-c3nnco3)cc3c(OCc4ccccc4)cccc3c2O1"
Result: 512 µg/mL

----------
Measured MIC accompanies every entry in the list below.
target: Multidrug efflux pump subunit AcrB (Escherichia coli (strain K12)); assay: Inhibition of AcrB in multidrug-resistant Escherichia coli BW25113 assessed as potentiation of erythromycin-induced antibacterial activity by measuring erythromycin MIC at 32 ug/ml by checkerboard titration method (reference value: 64 ug/ml); details: dose 32.0 µg/ml
I only need the number, in µg/mL, no unit after it.

See these solved cases before continuing.
{"Compound": "C=CC(=O)Nc1ccc(COc2cccc3c4c(c(C(=O)N5CCOCC5)cc23)CCC(C)(C)O4)cc1", "Measurement Units": "µg/mL", "MIC": 16}
{"Compound": "CC1(C)CC(=O)c2ccc(OCCNC3CCCC3)cc2O1", "Measurement Units": "µg/mL", "MIC": 64}
{"Compound": "CC1(C)CCc2c(C(=O)O)cc3c(OCc4ccccc4)cccc3c2O1", "Measurement Units": "µg/mL", "MIC": 64}
{"Compound": "CC1(C)CCc2c(Cn3cnnn3)cc3c(OCc4ccc(OC(F)(F)F)cc4)cccc3c2O1", "Measurement Units": "µg/mL", "MIC": 64}
{"Compound": "CC1(C)CCc2c(C(=O)N3CCOCC3)cc3c(OCc4ccc(C(F)(F)F)cc4)cccc3c2O1", "Measurement Units": "µg/mL", "MIC": 64}
{"Compound": "CC1CN(C(=O)c2cc3c(OCc4c(Cl)cccc4Cl)cccc3c3c2CCC(C)(C)O3)CC(C)O1 (centres undefined)", "Measurement Units": "µg/mL", "MIC": 64}
{"Compound": "CNC(=O)c1ccc(COc2cccc3c4c(c(Cn5cnnn5)cc23)CCC(C)(C)O4)cc1", "Measurement Units": "µg/mL", "MIC": 64}
{"Compound": "CC1(C)CCc2c(C(=O)N3CCOCC3)cc3c(OCc4ccccc4)cccc3c2O1", "Measurement Units": "µg/mL", "MIC": 64}

Problem: Specify reported MIC for the compound shown: "CC1(C)CCc2c(-c3nnco3)cc3c(OCc4ccc(F)cc4)cccc3c2O1"
Result: 32

Problem: In one line, give reported MIC of the entry "CC1(C)CCc2c(Cn3cnnn3)cc3c(OCc4ccccc4)cccc3c2O1" .
Result: 64

Problem: // Input: "CC1(C)CCc2c(-c3nnco3)cc3c(OCc4ccccc4)cccc3c2O1" . Output its MIC only.
Result: 32

Problem: Provide MIC value for the following compound: "CC(C)NCCOc1ccc2c(c1)OC(C)(C)CC2=O"
Result: 64

Problem: Return reported MIC. Input compound: "COc1cccc(COc2cccc3c4c(c(-c5nnco5)cc23)CCC(C)(C)O4)c1"
Result: 64

Problem: Let me know recorded MIC for CC1CN(C(=O)c2cc3c(OCc4ccc(Br)cc4)cccc3c3c2CCC(C)(C)O3)CC(C)O1 (centres undefined) , thanks.
Result: 64

----------
Measured MIC accompanies every entry in the list below.
Molecular target: Multidrug efflux pump subunit AcrB (Escherichia coli (strain K12))
Sequence (whole entry): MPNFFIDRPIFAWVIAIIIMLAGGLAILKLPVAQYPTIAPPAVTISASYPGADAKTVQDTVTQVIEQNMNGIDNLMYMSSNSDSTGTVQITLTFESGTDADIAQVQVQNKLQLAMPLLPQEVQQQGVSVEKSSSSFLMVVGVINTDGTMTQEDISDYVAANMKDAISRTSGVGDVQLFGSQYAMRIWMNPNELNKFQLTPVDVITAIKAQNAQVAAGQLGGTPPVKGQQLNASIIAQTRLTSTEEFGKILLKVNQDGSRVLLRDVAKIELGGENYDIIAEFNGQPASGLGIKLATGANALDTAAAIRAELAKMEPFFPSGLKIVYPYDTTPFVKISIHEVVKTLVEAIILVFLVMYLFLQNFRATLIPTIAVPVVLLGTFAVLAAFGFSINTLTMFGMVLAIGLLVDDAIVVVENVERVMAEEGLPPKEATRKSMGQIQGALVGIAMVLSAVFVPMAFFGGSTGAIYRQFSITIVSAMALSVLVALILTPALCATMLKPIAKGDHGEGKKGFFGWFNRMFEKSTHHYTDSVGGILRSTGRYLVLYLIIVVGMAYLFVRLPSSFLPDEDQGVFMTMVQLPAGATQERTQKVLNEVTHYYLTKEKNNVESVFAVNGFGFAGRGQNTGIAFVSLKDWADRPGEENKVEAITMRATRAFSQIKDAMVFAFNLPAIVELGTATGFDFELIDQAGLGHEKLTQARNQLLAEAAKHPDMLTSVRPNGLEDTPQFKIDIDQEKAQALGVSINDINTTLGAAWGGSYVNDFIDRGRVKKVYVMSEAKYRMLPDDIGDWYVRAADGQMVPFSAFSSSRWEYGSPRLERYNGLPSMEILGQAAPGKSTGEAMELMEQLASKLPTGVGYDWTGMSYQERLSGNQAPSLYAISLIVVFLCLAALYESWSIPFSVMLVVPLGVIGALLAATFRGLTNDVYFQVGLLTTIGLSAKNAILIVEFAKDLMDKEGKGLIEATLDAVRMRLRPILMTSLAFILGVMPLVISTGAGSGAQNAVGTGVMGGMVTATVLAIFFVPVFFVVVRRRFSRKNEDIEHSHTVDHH
Assay: Inhibition of AcrB in multidrug-resistant Escherichia coli BW25113 assessed as potentiation of tetraphenylphosphonium-induced antibacterial activity by measuring tetraphenylphosphonium MIC at 32 ug/ml by checkerboard titration method (reference value: 1024 ug/ml)
Details: dose 32.0 µg/ml
Report as a plain number; the unit µg/mL is understood.

{"Compound": "CC1CN(C(=O)c2cc3c(OCc4c(Cl)cccc4Cl)cccc3c3c2CCC(C)(C)O3)CC(C)O1 (centres undefined)", "Experimental System": "Multidrug efflux pump subunit AcrB (Escherichia coli (strain K12))", "Measurement Units": "µg/mL", "MIC": 1020}
{"Compound": "CC1(C)CCc2c(Cn3cnnn3)cc3c(OCc4ccccc4)cccc3c2O1", "Experimental System": "Multidrug efflux pump subunit AcrB (Escherichia coli (strain K12))", "Measurement Units": "µg/mL", "MIC": 1020}
{"Compound": "Cc1ccccc1COc1cccc2c3c(c(-c4nnco4)cc12)CCC(C)(C)O3", "Experimental System": "Multidrug efflux pump subunit AcrB (Escherichia coli (strain K12))", "Measurement Units": "µg/mL", "MIC": 512}
{"Compound": "COc1cccc(COc2cccc3c4c(c(C(=O)N5CCOCC5)cc23)CCC(C)(C)O4)c1", "Experimental System": "Multidrug efflux pump subunit AcrB (Escherichia coli (strain K12))", "Measurement Units": "µg/mL", "MIC": 512}
{"Compound": "C=CC(=O)Nc1ccc(COc2cccc3c4c(c(C(=O)N5CCOCC5)cc23)CCC(C)(C)O4)cc1", "Experimental System": "Multidrug efflux pump subunit AcrB (Escherichia coli (strain K12))", "Measurement Units": "µg/mL", "MIC": 256}

Problem: Item "CC1(C)CCc2c(C(=O)N3CCOCC3)cc3c(OCc4ccc(C(F)(F)F)cc4)cccc3c2O1" : provide MIC
Result: 512

Problem: Tell me its MIC given "CC1(C)CCc2c(-c3nnco3)cc3c(OCc4ccc(F)cc4)cccc3c2O1" as the entry.
Result: 512

Problem: Return MIC for the following compound: "COc1cccc(COc2cccc3c4c(c(C(=O)O)cc23)CCC(C)(C)O4)c1"
Result: 1020

Problem: Report MIC for "CC1(C)CCc2c(-c3nnco3)cc3c(OCc4ccc(C#N)cc4)cccc3c2O1"
Result: 1020
